Data origin: patent US20160200791A1

Entries and their In vitro potency EC50 (CRE luciferase reporter gene assay, BHK cells)
# study_target: human GLP-1 receptor (human, UniProt P43220 24-463)
# method_notes: cell-based or functional assay
Numbered stars: 1 amine (or outer) side, 2 acyl side, 3 side chain; on linkers, the order of the positions; unused ones are H or OH. Square brackets hold non-standard residues; d marks the D form. Side chains are listed from the residue outwards. Ends that are not written are not given here. * marks the point of attachment. Hexadecanoyl(16-SO3H) = O=C(CCCCCCCCCCCCCCCS(=O)(=O)O)*; C20 diacid = O=C(O)CCCCCCCCCCCCCCCCCCC(=O)*; C18 diacid = O=C(O)CCCCCCCCCCCCCCCCC(=O)*; γGlu = O=C(O)[C@H](CCC(=O)[*:2])N[*:1]; εLys = N[C@@H](CCCCN[*:1])C(=O)[*:2]; AEEA = NCCOCCOCC(=O)O; Aib = CC(C)(N)C(=O)O; GABA = NCCCC(=O)O
Give your result in nM as a bare value.

Example cases with answers are listed next.
H[Aib]EGTFTSDVSK([AEEA-AEEA-AEEA-AEEA-AEEA-εLys-εLys-GABA-Hexadecanoyl(16-SO3H)])YLEK([AEEA-AEEA-AEEA-AEEA-AEEA-εLys-εLys-GABA-Hexadecanoyl(16-SO3H)])QAAREFIK([AEEA-AEEA-AEEA-AEEA-AEEA-εLys-εLys-GABA-Hexadecanoyl(16-SO3H)])WLVRGRG (Full chemical name printed at h-0092): 0.015
H[Aib]EGTFTSDVSSYLEEQAARK([AEEA-AEEA-γGlu-C18 diacid])FIK([AEEA-AEEA-γGlu-C18 diacid])WLVRGRK([AEEA-AEEA-γGlu-C18 diacid]) (Full chemical name printed at h-0070): 0.026
H[Aib]EGTFTSDVSK([AEEA-AEEA-AEEA-AEEA-εLys-εLys-GABA-Hexadecanoyl(16-SO3H)])YLEK([AEEA-AEEA-AEEA-AEEA-εLys-εLys-GABA-Hexadecanoyl(16-SO3H)])QAAREFIK([AEEA-AEEA-AEEA-AEEA-εLys-εLys-GABA-Hexadecanoyl(16-SO3H)])WLVRGRG (Full chemical name printed at h-0086): 0.116
H[Aib]EGTFTSDVSK([AEEA-AEEA-AEEA-AEEA-AEEA-εLys-εLys-εLys-C18 diacid])YLEK([AEEA-AEEA-AEEA-AEEA-AEEA-εLys-εLys-εLys-C18 diacid])QAAREFIK([AEEA-AEEA-AEEA-AEEA-AEEA-εLys-εLys-εLys-C18 diacid])WLVRGRG (Full chemical name printed at h-0084): 0.018
H[Aib]EGTFTSDVSK([AEEA-AEEA-AEEA-AEEA-AEEA-εLys-εLys-C20 diacid])YLEK([AEEA-AEEA-AEEA-AEEA-AEEA-εLys-εLys-C20 diacid])QAAREFIK([AEEA-AEEA-AEEA-AEEA-AEEA-εLys-εLys-C20 diacid])WLVRGRG (Full chemical name printed at h-0080): 0.082

Ask: # return recorded In vitro potency EC50 (CRE luciferase reporter gene assay, BHK cells) for entry H[Aib]EGTFTSDVSSYLEEQAAK([εLys-AEEA-AEEA-γGlu-C18 diacid])EFIK([εLys-AEEA-AEEA-γGlu-C18 diacid])WLVRGRK([εLys-AEEA-AEEA-γGlu-C18 diacid]) (Full chemical name printed at h-0072)
Reply: 0.085
